These data points were gathered from the supplement of paper PMC10515830.

System: Danio rerio larvae (5 dpf)
Assay: difference in combined optomotor response to red, green and blue moving lines vs DMSO (percentage points); higher = stronger optomotor response than DMSO
Conditions: 10 µM; exposure time 6 h
Counter-ions that a name gives are not always drawn.
Record YES whenever difference is at -2 or higher; record NO when lower.

molecule | group
CCC(C)(C)C(=O)O[C@H]1C[C@@H](C)C=C2C=C[C@H](C)[C@H](CC[C@@H]3C[C@@H](O)CC(=O)O3)[C@H]21 [Simvastatin] | YES
Cn1c(=O)c2[nH]cnc2n(C)c1=O [Oxtriphylline] | NO
COc1cc2nc(N3CCN(C(=O)C4COc5ccccc5O4)CC3)nc(N)c2cc1OC (configuration not stated) [Doxazosin (mesylate)] | NO
CNCCC(Oc1ccc(C(F)(F)F)cc1)c1ccccc1 (configuration not stated) [Fluoxetine (hydrochloride)] | NO
CC1(C)S[C@@H]2[C@H](NC(=O)COc3ccccc3)C(=O)N2[C@H]1C(=O)O [Penicillin V (potassium salt)] | YES
CC1(C)O[C@@H]2C[C@H]3[C@@H]4C[C@H](F)C5=CC(=O)CC[C@]5(C)[C@H]4[C@@H](O)C[C@]3(C)[C@]2(C(=O)CO)O1 [Flurandrenolide] | YES
CC#C[C@]1(O)CC[C@H]2[C@@H]3CCC4=CC(=O)CCC4=C3[C@@H](c3ccc(N(C)C)cc3)C[C@@]21C [Mifepristone] | YES

====

Tested on: Danio rerio larvae (5 dpf)
Assay: difference in startle response vs DMSO (percentage points); higher = stronger startle than DMSO
Conditions: 10 µM; exposure time 6 h
quantity name: difference in startle response

molecule | quantity name | result value
NS(=O)(=O)c1cc(C2(O)NC(=O)c3ccccc32)ccc1Cl (stereo not drawn) | difference in startle response | 0.0654
COc1ccc2[nH]c([S+]([O-])Cc3ncc(C)c(OC)c3C)nc2c1 (stereo not drawn) | difference in startle response | -0.657
O=c1[nH]c(=O)n([C@H]2C[C@H](O)[C@@H](CO)O2)cc1I | difference in startle response | 0.604
CC(C)N(CCCCOCC(=O)NS(C)(=O)=O)c1cnc(-c2ccccc2)c(-c2ccccc2)n1 | difference in startle response | 6.8
CCCCNc1cc(C(=O)O)cc(S(N)(=O)=O)c1Oc1ccccc1 [Bumetanide] | difference in startle response | -2.75
C#C[C@]1(O)CC[C@H]2[C@@H]3CCc4cc(O)ccc4[C@H]3CC[C@@]21C | difference in startle response | -3.27
CC(C)(C)c1nc(-c2cccc(NS(=O)(=O)c3c(F)cccc3F)c2F)c(-c2ccnc(N)n2)s1 | difference in startle response | 0.607
CN1C(C(=O)Nc2ccccn2)=C(O)c2ccccc2S1(=O)=O | difference in startle response | 0.219

====

Test system: Danio rerio larvae (5 dpf)
Assay: difference in activity during first hour vs DMSO (percentage points); higher = more activity than DMSO
Conditions: 10 µM; exposure time 6 h
Where a name gives a salt, the structure may show the parent alone.
quantity name: difference in activity during first hour

compound | result value
CCOc1nc2cccc(C(=O)OCc3oc(=O)oc3C)c2n1Cc1ccc(-c2ccccc2-c2noc(=O)[nH]2)cc1 [Azilsartan Medoxomil] | -8.07
NC[C@H]1CC[C@H](C(=O)O)CC1 [Tranexamic Acid] | 13.1
Cc1ccc(Cl)c(Nc2ccccc2C(=O)O)c1Cl [Meclofenamate (sodium salt)] | -18
CCCS(=O)(=O)Nc1ccc(F)c(C(=O)c2c[nH]c3ncc(-c4ccc(Cl)cc4)cc23)c1F | -5.03
COc1c(C)c2c(c(O)c1C/C=C(\C)CCC(=O)O)C(=O)OC2 [Mycophenolic Acid] | -1.66
CC(C)c1c(C(=O)Nc2ccccc2)c(-c2ccccc2)c(-c2ccc(F)cc2)n1CC[C@@H](O)C[C@@H](O)CC(=O)O [Atorvastatin (calcium salt hydrate)] | -6.37
NNC(=O)c1ccncc1 [Isoniazid] | 12.7
COc1cc(C(=O)NCc2ccc(OCCN(C)C)cc2)cc(OC)c1OC [Trimethobenzamide (hydrochloride)] | -0.789
CN1CCC[C@H]1c1cccnc1 (racemic) [(±)-Nicotine] | 50
Nc1nc(O)c2ncn(CCC(CO)CO)c2n1 [Penciclovir] | 13.9
Cc1ccccc1N1C(=O)c2cc(S(N)(=O)=O)c(Cl)cc2NC1C (stereo unspecified) [Metolazone] | -12.7
CCCCCOC(=O)Nc1nc(=O)n([C@@H]2O[C@H](C)[C@@H](O)[C@H]2O)cc1F [Capecitabine] | -0.876
CN1CCC(=C2c3ccccc3C=Cc3ccccc32)CC1 [Cyproheptadine (hydrochloride hydrate)] | -3.08
O=NN(CCCl)C(=O)NCCCl [Carmustine] | 1.68
CC/C=C\C/C=C\C/C=C\C/C=C\C/C=C\CCCC(=O)OCC [Eicosapentaenoic Acid ethyl ester] | -7.19
CC(C)C[C@H](NC(=O)[C@H](CCc1ccccc1)NC(=O)CN1CCOCC1)C(=O)N[C@@H](Cc1ccccc1)C(=O)N[C@@H](CC(C)C)C(=O)[C@@]1(C)CO1 [Carfilzomib] | 4.53
CNC(=C[N+](=O)[O-])NCCSCc1ccc(CN(C)C)o1 [Ranitidine (hydrochloride)] | 11.1
CN1CCC[C@@H]1CCO[C@](C)(c1ccccc1)c1ccc(Cl)cc1 [Clemastine (fumarate)] | -0.468
Oc1c(Cl)cc(Cl)c(Cl)c1Cc1c(O)c(Cl)cc(Cl)c1Cl [Hexachlorophene] | -18.6
Nc1ccc(C(=O)NCC(=O)O)cc1 [4-Aminohippuric Acid] | 3.44
Cc1nc2n(c(=O)c1CCN1CCC(c3noc4cc(F)ccc34)CC1)CCCC2O (stereo unspecified) [Paliperidone] | 18.6
Cc1c(O)cccc1C(=O)N[C@@H](CSc1ccccc1)[C@H](O)CN1C[C@H]2CCCC[C@H]2C[C@H]1C(=O)NC(C)(C)C [Nelfinavir (mesylate)] | -23
NC(=O)c1ncn([C@@H]2O[C@H](CO)[C@@H](O)[C@H]2O)n1 [Ribavirin] | 21.8
CCC(=O)O[C@]1(C(=O)SCF)[C@H](C)C[C@H]2[C@@H]3C[C@H](F)C4=CC(=O)C=C[C@]4(C)[C@@]3(F)[C@@H](O)C[C@@]21C [Fluticasone Propionate] | 11.5
CN[C@H]1CC[C@@H](c2ccc(Cl)c(Cl)c2)c2ccccc21 [Sertraline (hydrochloride)] | -22.3
CN(C/C=C/c1ccccc1)Cc1cccc2ccccc12 [Naftifine (hydrochloride)] | -7.66
CCCCN1CCCCC1C(=O)Nc1c(C)cccc1C (stereo unspecified) [Bupivacaine] | 13.4
CCN(CC)C(=O)C1(c2ccccc2)CC1CN (stereo unspecified) [Milnacipran (hydrochloride)] | -15.2
CC1(C)O[C@@H]2C[C@H]3[C@@H]4CCC5=CC(=O)C=C[C@]5(C)[C@@]4(F)[C@@H](O)C[C@]3(C)[C@]2(C(=O)CO)O1 [Triamcinolone acetonide] | 12.6
CCCCCC(=O)O[C@]1(C(C)=O)CC[C@H]2[C@@H]3CCC4=CC(=O)CC[C@]4(C)[C@H]3CC[C@@]21C [Hydroxyprogesterone Caproate] | -13.7
CC(C)OC(=O)CCC/C=C\C[C@@H]1[C@@H](CC[C@@H](O)CCc2ccccc2)[C@H](O)C[C@@H]1O [Latanoprost] | 20.8

====

Reported difference in activity during first hour values follow for various compounds
Test system: Danio rerio larvae (5 dpf)
Assay: difference in activity during first hour vs DMSO (percentage points); higher = more activity than DMSO
Conditions: 10 µM; exposure time 6 h
Where a name gives a salt, the structure may show the parent alone.
quantity name: difference in activity during first hour

compound | result value
O=C(O)COCCN1CCN(C(c2ccccc2)c2ccc(Cl)cc2)CC1 (stereo not drawn) [Cetirizine (hydrochloride)] | 4.04
CCCCc1oc2ccc(NS(C)(=O)=O)cc2c1C(=O)c1ccc(OCCCN(CCCC)CCCC)cc1 [Dronedarone (hydrochloride)] | 11.1
CC(C)CN(C[C@@H](O)[C@H](Cc1ccccc1)NC(=O)O[C@H]1CO[C@H]2OCC[C@H]21)S(=O)(=O)c1ccc(N)cc1 | 0.73
CN(C)C/C=C/C(=O)Nc1cc2c(Nc3ccc(F)c(Cl)c3)ncnc2cc1O[C@H]1CCOC1 [Afatinib (maleate)] | -11.3
Cc1nc2c([nH]1)-c1ccccc1N(C(=O)c1ccc(NC(=O)c3ccccc3-c3ccccc3)cc1)CC2 [Conivaptan (hydrochloride)] | -10.7
CC(C)CN(C[C@@H](O)[C@H](Cc1ccccc1)NC(=O)O[C@H]1CCOC1)S(=O)(=O)c1ccc(N)cc1 | 6.71
c1cnc2cc3c(cc2n1)[C@@H]1CNC[C@H]3C1 [Varenicline (tartrate)] | 3.08
COC(=O)/C=C/C(=O)OC [Dimethyl fumarate] | 20.1
Nc1ccc(S(=O)(=O)Nc2ncccn2)cc1 | 7.75
C[C@@H](O)[C@@H]1NC(=O)[C@H](CCCCN)NC(=O)[C@@H](Cc2c[nH]c3ccccc23)NC(=O)[C@H](Cc2ccccc2)NC(=O)[C@@H](NC(=O)[C@H](N)Cc2ccccc2)CSSC[C@@H](C(=O)N[C@H](CO)[C@@H](C)O)NC1=O [Octreotide (acetate)] | -5.09
C[C@@H](c1ncncc1F)[C@](O)(Cn1cncn1)c1ccc(F)cc1F | -18.9
COC(=O)[C@H]1[C@H]2C[C@@H]3c4[nH]c5cc(OC)ccc5c4CCN3C[C@H]2C[C@@H](OC(=O)c2cc(OC)c(OC)c(OC)c2)[C@@H]1OC | 9.27
COC(=O)N[C@H](C(=O)N1CCC[C@H]1c1ncc(-c2ccc(-c3ccc(-c4cnc([C@@H]5CCCN5C(=O)[C@@H](NC(=O)OC)C(C)C)[nH]4)cc3)cc2)[nH]1)C(C)C | -4.26
CCN(Cc1ccncc1)C(=O)C(CO)c1ccccc1 (stereo not drawn) [Tropicamide] | 14.3
CC(=O)N[C@H]1[C@H]([C@H](O)[C@H](O)CO)OC(C(=O)O)=C[C@@H]1NC(=N)N | -16.7
COc1cc2c(cc1OC)[C@@H](Cc1cc(OC)c(OC)c(OC)c1)[N+](C)(CCCOC(=O)CC/C=C/CCC(=O)OCCC[N+]1(C)CCc3cc(OC)c(OC)cc3[C@H]1Cc1cc(OC)c(OC)c(OC)c1)CC2 (stereo partly drawn) [Mivacurium (chloride)] | -16.7
N=C(N)NC(=O)c1nc(Cl)c(N)nc1N [Amiloride (hydrochloride) (hydrate)] | -3.37
CC(C)(O)c1ccccc1CC[C@@H](SCC1(CC(=O)O)CC1)c1cccc(/C=C/c2ccc3ccc(Cl)cc3n2)c1 [Montelukast (sodium salt)] | -3.93
Clc1ccc2nsnc2c1NC1=NCCN1 [Tizanidine (hydrochloride)] | -8.71
C[C@H]1c2cccc(O)c2C(=O)C2=C(O)[C@]3(O)C(=O)C(C(N)=O)=C(O)[C@@H](N(C)C)[C@@H]3[C@@H](O)[C@@H]21 [Doxycycline (hyclate)] | 5.72
Cc1ccc(=O)n(-c2ccccc2)c1 | 0.0618
Nc1ncnc2c1ncn2[C@@H]1O[C@H](CO)[C@@H](O)[C@H]1O | 10
Nc1nc2c(ncn2COC(CO)CO)c(=O)[nH]1 | 7.53
FCOC(C(F)(F)F)C(F)(F)F | 0.0224
CCCCCCCCCCCCCCCC(=O)OC/C=C(C)/C=C/C=C(C)/C=C/C1=C(C)CCCC1(C)C [Retinyl Palmitate] | 3.08
C[C@]12C=CC(=O)C=C1CC[C@@H]1[C@@H]2[C@@H](O)C[C@@]2(C)[C@H]1CC[C@]2(O)C(=O)CO | 13.7
CC(C)C[C@H](NC(=O)CNC(=O)c1cc(Cl)ccc1Cl)B1OC(=O)C(CC(=O)O)(CC(=O)O)O1 | 2.45
Cc1nnc(C(C)C)n1C1C[C@H]2CC[C@@H](C1)N2CC[C@H](NC(=O)C1CCC(F)(F)CC1)c1ccccc1 (stereo in doubt) | 5.94
